Recorded values, source PubChem BioAssay (NCI).

Tested on: TK-10 renal
Test: NCI tumour cell line growth inhibition, 48 h
READOUT KIND: TGI

These solved cases illustrate the format of a correct answer.
• C[N+](C)(C)CC1CCCC(C[N+](C)(C)C)C1O (stereo unspecified) = > 100 µM
• O=C1C=CC2(C=C1)C[C@H](NC(=O)C(F)(F)F)C(=O)O2 = > 100 µM
• Nc1[nH]c(=O)ncc1CO = > 100 µM
• NCCOCC(N)C(=O)O (stereo unspecified) = > 100 µM
• COc1cc2c(c(OC)c1OC)-c1ccc(SC)c(=O)cc1[C@@H](NC(=O)c1ccc(Cl)cc1)CC2 = > 100 µM
• CCCCCCCCCCCCCCCCOC(=O)c1cc(O)cc(C(=O)OCCCCCCCCCCCCCCCC)c1 = > 100 µM
• Cc1ccc(C(C)C)cc1NC(=O)Nc1ccc([N+](=O)[O-])cc1 = 9.44 µM
• S=c1nc(-c2ccnc(-c3nc(=S)[nH][nH]3)c2)[nH][nH]1 = > 100 µM
• Oc1ccc(Cl)cc1Cc1cc(Cl)ccc1O = 11.3 µM
• CC1OC(OC2CCC3(C=O)C4CCC5(C)C(C6=CC(=O)OC6)CCC5(O)C4CCC3(O)C2)C(O)C(O)C1O (stereo unspecified) = 0.000193 µM

Recorded TGI for "N#Cc1nc(C#N)n(C(=O)c2ccccc2)c1NC(=O)c1ccccc1" on TK-10 renal was > 100 µM

Record "Cc1c(C(=O)CSc2nc3ccccc3[nH]2)c(=O)n(-c2ccccc2)n1C" / TK-10 renal, TGI recorded as > 100 µM

Lab entry: TK-10 renal assay, compound "Cc1cc2c(c(=O)n1C)SCC2" , TGI = > 100 µM

Sample "COC(OC)c1cc2c(cc1C(=O)[C@@]13CCC[C@@H]1NC(=O)O3)OCO2" , system: TK-10 renal. Its TGI is > 100 µM

Record CCOC(=O)C1(C(F)(F)F)N=C(CC)OC(N2CCOCC2)=N1 (stereo unspecified) / TK-10 renal, TGI recorded as > 100 µM

# lookup: CC1(C)OC2C(COS(N)(=O)=O)SC(n3cnc4cncnc43)C2O1 (stereo unspecified) on TK-10 renal, TGI = > 100 µM

Record CCOC(=O)[C@H]1Nc2ccccc2C2c3ccccc3CC21 (stereo partly specified) / TK-10 renal, TGI recorded as > 100 µM

CC(C)(C)OC(=O)n1cc(C2CN(O)C(=O)C23CCC(=O)N3Cc2ccccc2)c2ccccc21 (stereo unspecified) tested on TK-10 renal gave TGI: > 100 µM

Summary: "O=C1c2ccccc2C(=O)c2nc3ccc(Cl)cc3cc21" , TK-10 renal, TGI = > 100 µM
